biological target: T1, AFP158/HLA-A*02:01 complex (human); assay: SPR, scFv captured, pMHC in flow;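 also: complex injected at several concentrations over crude scFv, association then running-buffer dissociation, KD estimated from kinetic on- and off-rate constants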
T1 construct: flowed over the chip in SPR; also called AFP158 pro
reportedProperty: pKd
One number for each entry, as −log10 of the molar value.

Worked cases, answers included:
{"binder": "LH98N (scFv, AS170036 VL1VH1 scFv mutein) scFv: QSALTQPRSVSGSPGQSVTISCAGTSSDVGSENYVSWYQQHPGKAPKLMIYQVNKRASGVPDRFSGSKSGNTASLTISGLQAEDEADYYCASYRSSDNNIVFGGGTKLTVLGGGGSGGGGSGGGGSEVQLVESGGGLVQPGGSLRLSCAASGFTFSSYAMSWVRQAPGKGLEWVSTINSGTGSPYYADSVKGRFTISRDNSKNTLYLQMNSLRAEDTAVYYCAKNFFDGSWFLGPPAMDYWGQGTLVTVSSHHHHHH", "pKd": 6.80}
{"binder": "LE32A (scFv, AS170036 VL1VH1 scFv mutein) scFv: QSALTQPRSVSGSPGQSVTISCAGTSSDVGSANYVSWYQQHPGKAPKLMIYQVNKRASGVPDRFSGSKSGNTASLTISGLQAEDEADYYCASYRSSDHNIVFGGGTKLTVLGGGGSGGGGSGGGGSEVQLVESGGGLVQPGGSLRLSCAASGFTFSSYAMSWVRQAPGKGLEWVSTINSGTGSPYYADSVKGRFTISRDNSKNTLYLQMNSLRAEDTAVYYCAKNFFDGSWFLGPPAMDYWGQGTLVTVSSHHHHHH", "pKd": 6.15}

IN: Could you share which pKd value was measured for LE32G (scFv, AS170036 VL1VH1 scFv mutein) scFv: QSALTQPRSVSGSPGQSVTISCAGTSSDVGSGNYVSWYQQHPGKAPKLMIYQVNKRASGVPDRFSGSKSGNTASLTISGLQAEDEADYYCASYRSSDHNIVFGGGTKLTVLGGGGSGGGGSGGGGSEVQLVESGGGLVQPGGSLRLSCAASGFTFSSYAMSWVRQAPGKGLEWVSTINSGTGSPYYADSVKGRFTISRDNSKNTLYLQMNSLRAEDTAVYYCAKNFFDGSWFLGPPAMDYWGQGTLVTVSSHHHHHH ?
OUT: 6.46
